assayed target: FaABAR-His fusion protein (Fragaria × ananassa)
Sequence (C6KF71 1-1381): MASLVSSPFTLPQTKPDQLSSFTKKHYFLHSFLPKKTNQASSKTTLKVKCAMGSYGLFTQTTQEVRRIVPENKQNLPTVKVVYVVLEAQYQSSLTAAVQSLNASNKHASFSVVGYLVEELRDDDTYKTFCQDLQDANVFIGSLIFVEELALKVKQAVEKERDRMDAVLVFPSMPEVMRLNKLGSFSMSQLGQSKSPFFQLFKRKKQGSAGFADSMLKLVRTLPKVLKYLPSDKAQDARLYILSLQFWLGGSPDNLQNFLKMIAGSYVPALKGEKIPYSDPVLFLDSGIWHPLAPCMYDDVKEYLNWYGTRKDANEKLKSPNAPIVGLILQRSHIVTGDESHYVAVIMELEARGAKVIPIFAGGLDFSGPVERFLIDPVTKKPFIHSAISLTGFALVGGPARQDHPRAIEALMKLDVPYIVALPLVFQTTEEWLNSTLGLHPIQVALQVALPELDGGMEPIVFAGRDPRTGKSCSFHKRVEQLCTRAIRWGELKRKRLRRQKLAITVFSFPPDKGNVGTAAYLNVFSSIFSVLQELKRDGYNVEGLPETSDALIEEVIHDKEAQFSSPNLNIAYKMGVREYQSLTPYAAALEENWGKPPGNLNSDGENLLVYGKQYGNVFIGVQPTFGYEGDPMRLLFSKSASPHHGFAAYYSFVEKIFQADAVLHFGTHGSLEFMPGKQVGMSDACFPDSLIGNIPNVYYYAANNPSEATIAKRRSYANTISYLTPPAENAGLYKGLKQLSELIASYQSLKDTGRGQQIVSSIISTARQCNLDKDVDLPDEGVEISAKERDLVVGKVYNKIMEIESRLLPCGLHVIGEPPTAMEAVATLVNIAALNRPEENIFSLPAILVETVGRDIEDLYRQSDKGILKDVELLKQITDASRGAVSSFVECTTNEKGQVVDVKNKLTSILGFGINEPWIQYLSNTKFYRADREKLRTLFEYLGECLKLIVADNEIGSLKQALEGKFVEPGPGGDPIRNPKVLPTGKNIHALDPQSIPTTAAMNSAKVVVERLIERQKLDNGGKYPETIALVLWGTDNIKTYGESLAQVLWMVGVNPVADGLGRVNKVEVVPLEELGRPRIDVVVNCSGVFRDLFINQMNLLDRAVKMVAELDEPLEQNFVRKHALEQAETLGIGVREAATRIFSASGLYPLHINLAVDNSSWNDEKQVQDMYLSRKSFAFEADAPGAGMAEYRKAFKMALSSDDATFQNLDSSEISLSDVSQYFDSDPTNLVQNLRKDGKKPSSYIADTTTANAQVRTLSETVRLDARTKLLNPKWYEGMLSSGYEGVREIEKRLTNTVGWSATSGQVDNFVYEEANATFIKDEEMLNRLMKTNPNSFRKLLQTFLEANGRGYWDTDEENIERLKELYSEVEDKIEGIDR
assay protocol: ITC binding of ABA to FaABAR
experimental context: ITC, 0.4 mM S-(+)-ABA titrated into 20 μM protein, pH 7.4, 25 °C; endothermic, could not reach saturation curve
pKd: −log10 of the molar value.
attribute measured: pKd

{"compound": "CC1=CC(=O)CC(C)(C)[C@@]1(O)/C=C/C(C)=C\\C(=O)O [ABA, Abscisic acid]", "recorded result": 3.59}

###

assayed target: FaPYL2-His fusion protein
assay protocol: ITC binding of ABA to FaPYL2
experimental context: 0.4 mM S-(+)-ABA titrated into 20 μM protein, pH 7.4, 25 °C, endothermic, saturation curve
attribute measured: Kd (µM)

{"compound": "CC1=CC(=O)CC(C)(C)[C@@]1(O)/C=C/C(C)=C\\C(=O)O [ABA, Abscisic acid]", "display unit": "µM", "recorded result": 102}
